Every entry's value here was drawn from ChEMBL document CHEMBL4699600.

System: U-87 MG
PROCEDURE_TEXT: Cytotoxicity against human U-87 MG cells assessed as reduction in cell viability incubated for 48 hrs by MTT assay
Some compounds, each annotated with its measured pIC50.
pIC50 is defined as minus the log10 of a concentration measured in mol/L.

Worked examples, 3 compounds total:
- SMILES_STRING: "CNC(=O)c1ccccc1Nc1nc(Nc2ccc(N3CCOCC3)cc2OC)ncc1Cl"
  pIC50: 5.54
- SMILES_STRING: "CNC(=O)c1ccccc1Nc1nc(Nc2ccc(CNc3c(NCCNC(=O)/C(C#N)=C/C4CC4)c(=O)c3=O)cc2)ncc1Cl"
  pIC50: 5.14
- SMILES_STRING: "C=CC(=O)NCCNc1c(NCc2ccc(Nc3ncc(Cl)c(Nc4ccccc4C(=O)NC)n3)cc2)c(=O)c1=O"
  pIC50: 5.66

Enquiry: Using the record for `CNC(=O)c1ccccc1Nc1nc(Nc2ccc(CNc3c(NCCNC(=O)/C(C#N)=C/C(C)C)c(=O)c3=O)cc2)ncc1Cl` , report its pIC50.
Return: 5.15

Enquiry: Using the record for `C=CC(=O)NCCNc1c(NCc2ccc(Nc3ncc(C(F)(F)F)c(Nc4ccccc4C(=O)NC)n3)cc2)c(=O)c1=O` , report its pIC50.
Return: 5.48

* * *

Some molecules, each annotated with its measured inhibition.
TARGET: Serine/threonine-protein kinase AKT (Homo sapiens) (UniProt P31751+Q9Y243+P31749)
Sequence (P31749 whole entry, looked up): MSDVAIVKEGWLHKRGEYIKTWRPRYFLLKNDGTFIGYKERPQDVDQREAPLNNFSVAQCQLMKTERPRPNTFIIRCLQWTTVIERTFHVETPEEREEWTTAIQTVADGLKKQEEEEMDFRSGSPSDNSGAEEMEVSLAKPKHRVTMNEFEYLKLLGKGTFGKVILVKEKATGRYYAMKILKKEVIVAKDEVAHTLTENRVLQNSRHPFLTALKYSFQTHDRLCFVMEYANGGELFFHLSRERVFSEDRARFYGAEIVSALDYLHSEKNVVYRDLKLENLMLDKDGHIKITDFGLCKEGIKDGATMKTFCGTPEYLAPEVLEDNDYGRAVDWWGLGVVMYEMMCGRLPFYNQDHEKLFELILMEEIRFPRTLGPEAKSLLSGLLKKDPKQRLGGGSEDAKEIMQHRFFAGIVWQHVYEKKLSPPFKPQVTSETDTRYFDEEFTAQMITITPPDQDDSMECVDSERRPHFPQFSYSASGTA
Sequence (P31751 whole entry, looked up): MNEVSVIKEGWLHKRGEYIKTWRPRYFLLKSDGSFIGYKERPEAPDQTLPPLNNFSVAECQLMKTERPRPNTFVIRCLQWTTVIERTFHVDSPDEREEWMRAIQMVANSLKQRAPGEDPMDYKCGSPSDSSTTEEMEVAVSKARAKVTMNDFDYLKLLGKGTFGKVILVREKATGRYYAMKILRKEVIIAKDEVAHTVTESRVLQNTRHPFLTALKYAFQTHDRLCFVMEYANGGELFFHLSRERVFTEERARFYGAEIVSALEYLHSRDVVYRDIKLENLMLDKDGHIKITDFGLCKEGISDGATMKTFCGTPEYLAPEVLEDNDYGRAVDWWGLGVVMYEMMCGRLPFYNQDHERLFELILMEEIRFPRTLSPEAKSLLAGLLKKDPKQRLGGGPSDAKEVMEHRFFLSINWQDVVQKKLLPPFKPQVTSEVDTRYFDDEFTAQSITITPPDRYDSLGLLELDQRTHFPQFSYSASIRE
Sequence (Q9Y243 whole entry, looked up): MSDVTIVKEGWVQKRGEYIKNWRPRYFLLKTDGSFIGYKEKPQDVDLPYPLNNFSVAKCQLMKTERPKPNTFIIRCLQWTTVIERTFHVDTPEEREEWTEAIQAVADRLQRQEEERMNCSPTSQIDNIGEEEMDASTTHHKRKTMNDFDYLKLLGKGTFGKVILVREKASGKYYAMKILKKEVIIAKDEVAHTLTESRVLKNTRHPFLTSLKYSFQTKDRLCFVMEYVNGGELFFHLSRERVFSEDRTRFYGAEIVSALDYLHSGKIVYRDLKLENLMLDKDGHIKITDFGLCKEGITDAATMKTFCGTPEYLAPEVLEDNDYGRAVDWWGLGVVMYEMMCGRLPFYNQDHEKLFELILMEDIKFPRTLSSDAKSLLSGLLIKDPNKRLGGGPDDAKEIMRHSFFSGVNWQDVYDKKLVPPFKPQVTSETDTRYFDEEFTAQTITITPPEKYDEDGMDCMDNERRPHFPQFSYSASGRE
PROCEDURE_TEXT: Inhibition of human Akt at 100 nM in presence of [33P]-ATP by radiometric analysis relative to control
Format: protein assay
Only the number, expressed in %, is required.

- SMILES_STRING: "C=CC(=O)NCCNc1c(NCc2ccc(Nc3ncc(Cl)c(Nc4ccccc4C(=O)NC)n3)cc2)c(=O)c1=O"
  ENDPOINT_UNIT: "%"
  inhibition: 3.7

Enquiry: Query inhibition on Serine/threonine-protein kinase AKT (Homo sapiens) (UniProt P31751+Q9Y243+P31749) for `CNC(=O)c1ccccc1Nc1nc(Nc2ccc(CNc3c(NCCNC(=O)/C(C#N)=C/C(C)C)c(=O)c3=O)cc2)ncc1Cl`
Return: 19.9

Enquiry: Query inhibition on Serine/threonine-protein kinase AKT (Homo sapiens) (UniProt P31751+Q9Y243+P31749) for `C=CC(=O)NCCNc1c(NCc2ccc(Nc3ncc(C(F)(F)F)c(Nc4ccccc4C(=O)NC)n3)cc2)c(=O)c1=O`
Return: 25.1

Enquiry: Query inhibition on Serine/threonine-protein kinase AKT (Homo sapiens) (UniProt P31751+Q9Y243+P31749) for `C=CC(=O)NCCNc1c(NCc2ccc(Nc3ncc(Cl)c(NCc4cccnc4N(C)S(C)(=O)=O)n3)cc2)c(=O)c1=O`
Return: 2.5
